B1: tRNA (parent)
chain: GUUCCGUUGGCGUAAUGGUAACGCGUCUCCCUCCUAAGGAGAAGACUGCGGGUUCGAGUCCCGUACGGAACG

Variants of: B1
Assay: yeast fitness relative to wild type (ratio to wild type); higher = fitter; tRNA-Arg(CCU), competitive growth, 37 C, YPD
Fewer inactive variants are shown than the library holds.
# maps each entry to its yeast fitness
testReadout: yeast fitness

| alteration | censoringSign | assayValue |
| --- | --- | --- |
| G39U A45G G51A | = | 0.527 |
| C4A U8G A14U | = | 0.524 |
| U35G A43G | = | 0.725 |
| C11U G48A G51C C60A U64C | = | 0.887 |
| A14G C31G A57C A65C | ≤ | 0.5 |
| A15U G68C | = | 0.671 |
| U26A A70G | = | 0.924 |
| G6A G9C G68C | ≤ | 0.5 |
| G9A A37G A57U C66U | ≤ | 0.5 |
| G23C G39A | = | 0.669 |
| C5U A42U C55U A69C | ≤ | 0.5 |
